# Measured Target: human ANO6 (variant 5) (Homo sapiens, UniProt Q4KMQ2)
# Construct: expressed in transfected cells; host or cells: Fischer rat thyroid (FRT) cells
# Sequence (Q4KMQ2 1-931 isoform Q4KMQ2-2): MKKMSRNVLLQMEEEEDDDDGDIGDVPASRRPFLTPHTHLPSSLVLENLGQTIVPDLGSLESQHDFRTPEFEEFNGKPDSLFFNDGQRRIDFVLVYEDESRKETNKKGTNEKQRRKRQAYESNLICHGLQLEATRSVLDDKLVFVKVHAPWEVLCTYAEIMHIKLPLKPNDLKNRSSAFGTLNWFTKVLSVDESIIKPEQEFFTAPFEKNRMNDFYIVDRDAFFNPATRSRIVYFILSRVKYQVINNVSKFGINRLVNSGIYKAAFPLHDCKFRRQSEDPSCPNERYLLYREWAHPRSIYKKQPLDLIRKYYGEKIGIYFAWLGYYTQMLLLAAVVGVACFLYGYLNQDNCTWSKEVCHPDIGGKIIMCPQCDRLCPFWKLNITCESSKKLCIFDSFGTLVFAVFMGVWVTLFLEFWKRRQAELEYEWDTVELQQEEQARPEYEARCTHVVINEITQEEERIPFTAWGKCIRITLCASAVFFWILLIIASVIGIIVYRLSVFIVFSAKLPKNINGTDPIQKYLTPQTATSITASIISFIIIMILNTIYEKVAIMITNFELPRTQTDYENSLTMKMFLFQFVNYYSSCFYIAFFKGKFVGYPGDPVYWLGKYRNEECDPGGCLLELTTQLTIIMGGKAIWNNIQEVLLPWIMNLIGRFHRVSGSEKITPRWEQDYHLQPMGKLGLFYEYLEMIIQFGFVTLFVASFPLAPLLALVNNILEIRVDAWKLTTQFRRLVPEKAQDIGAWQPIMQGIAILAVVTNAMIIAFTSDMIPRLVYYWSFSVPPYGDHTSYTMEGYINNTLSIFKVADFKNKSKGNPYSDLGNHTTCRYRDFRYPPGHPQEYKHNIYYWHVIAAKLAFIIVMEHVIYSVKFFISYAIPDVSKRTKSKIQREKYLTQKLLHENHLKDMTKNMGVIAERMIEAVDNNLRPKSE
# Experiment Summary: Lact C2 assay (measuring phosphatidylserine externalization scramblase function)
# Type: cell-based
# Assay Context: FRT, compound 50 nM; FRT cells expressing human ANO6 (variant 5); ionomycin 10 µM; Lact-C2-GFP fluorescence; average of three tests; read-out: % Inhibition 50 nM
Measurement Label: inhibition at 0.05 µM

Solved entries:
FC(F)(F)c1ccc2nc(-c3cccc(Nc4cnc(-c5ccccn5)cn4)c3)[nH]c2c1 | > 60%
FC(F)(F)c1ccc2nc(-c3cccc(Nc4ccc(-c5cncnc5)cc4)c3)[nH]c2c1 | > 60%
FC(F)(F)c1ccc2[nH]c(-c3cccc(Nc4ccc(-c5cccnn5)cc4)c3)nc2n1 | 30 to 60%

Shifting focus to the molecule that follows.
Please give the measured inhibition at 0.05 µM for this molecule: "Fc1cccc(-c2cnc(Nc3cccc(-c4nc5ccccc5[nH]4)c3)nc2)n1"
30 to 60%

* * *

# Measured Target: human ANO6 (variant 5) (Homo sapiens)
# Construct: expressed in transfected cells; host or cells: Fischer rat thyroid (FRT) cells
# Experiment Summary: Lact C2 assay (measuring phosphatidylserine externalization scramblase function)
# Format: cell-based
# Assay Context: FRT, compound 1 µM; FRT cells expressing human ANO6 (variant 5); ionomycin 10 µM; Lact-C2-GFP fluorescence; average of three tests; read-out: % Inhibition 1 µM
Would you mind telling me the reported inhibition at 1 µM of each entry?

Solved entries:
Cc1cc(Nc2cccc(-c3nc4ccccc4[nH]3)c2)ccc1-c1cccnn1 | > 60%
CN(C)CCOc1ccc(-c2nc3ccc(C(F)(F)F)cc3[nH]2)cc1Nc1ccc(-c2cnccn2)cc1 | 30 to 60%
FC(F)Oc1ccc2nc(-c3cccc(Nc4ncc(-c5cccnn5)cn4)c3)[nH]c2c1 | 30 to 60%
CNc1ccc2nc(-c3cccc(Nc4ccc(-c5cccnn5)cc4)c3)[nH]c2c1 | 30 to 60%
Fc1ccc2nc(-c3cccc(Nc4ccc(-c5ccccn5)cc4)c3)[nH]c2c1 | > 60%
Cc1ccc2nc(-c3cccc(Nc4ccc(-c5cccnn5)cc4)c3)[nH]c2c1 | > 60%

Could you report inhibition at 1 µM for every entry in the following list?
1. FC(F)(F)Oc1ccc2nc(-c3cccc(Nc4ncc(-c5cccnn5)cn4)c3)[nH]c2c1
2. c1cc(Nc2ncc(-c3ccoc3)cn2)cc(-c2nc3ccccc3[nH]2)c1

["> 60%", "> 60%"]

Could you report inhibition at 1 µM for every entry in the following list?
1. c1cc(Nc2ccc(-c3cscn3)cc2)cc(-c2nc3ccccc3[nH]2)c1
2. Fc1cc2nc(-c3cccc(Nc4ccc(-c5ccccn5)cn4)c3)[nH]c2cc1F
3. Fc1cccc(-c2cnc(Nc3cccc(-c4nc5ccc(C(F)(F)F)cc5[nH]4)c3)nc2)c1
4. FC(F)(F)Oc1ccc2nc(-c3cccc(Nc4ccc(-c5cccnn5)cc4)c3)[nH]c2c1
5. Clc1cc2[nH]c(-c3cccc(Nc4ccc(-c5ccncn5)cc4)c3)nc2cn1

["> 60%", "> 60%", "> 60%", "> 60%", "> 60%"]

* * *

# Measured Target: human ANO6 (variant 5) (Homo sapiens, UniProt Q4KMQ2)
# Construct: expressed in transfected cells; host or cells: Fischer rat thyroid (FRT) cells
# Experiment Summary: Lact C2 assay (measuring phosphatidylserine externalization scramblase function)
# Type: cell-based
# Assay Context: FRT, compound 1 µM; FRT cells expressing human ANO6 (variant 5); ionomycin 10 µM; Lact-C2-GFP fluorescence; average of three tests; read-out: % Inhibition 1 µM
Measurement Label: inhibition at 1 µM

Could you report inhibition at 1 µM for every entry in the following list?
1. Clc1cc2[nH]c(-c3cccc(Nc4ncc(-c5cscn5)cn4)c3)nc2cn1 [Example 303]
2. Fc1cc2[nH]c(-c3cccc(Nc4ccc(-c5cccnn5)cc4)c3)nc2cc1Cl [Example 102]
3. Fc1cccnc1-c1ccc(Nc2cccc(-c3nc4ccc(C(F)(F)F)cc4[nH]3)c2)cc1 [Example 251]
4. Fc1cc2[nH]c(-c3cccc(Nc4ccc(-c5cccnn5)cc4)c3)nc2cc1C(F)(F)F [Example 104]
5. c1ccc(-c2ccc(Nc3cccc(-c4nc5ccccc5[nH]4)c3)nn2)cc1 [Example 2]
6. FC(F)(F)c1ccc2nc(-c3cccc(Nc4ccc(-c5ccncn5)cc4)c3)[nH]c2c1 [Example 24]

1: > 60%; 2: > 60%; 3: > 60%; 4: > 60%; 5: > 60%; 6: > 60%

Could you report inhibition at 1 µM for every entry in the following list?
1. FC(F)(F)c1cnc2nc(-c3cccc(Nc4ncc(-c5ccccn5)cn4)c3)[nH]c2c1 [Example 243]
2. Fc1cccc2nc(-c3cccc(Nc4ncc(-c5cccnn5)cn4)c3)[nH]c12 [Example 290]
3. Fc1ccc2nc(-c3cccc(Nc4ncc(-c5ncccn5)cn4)c3)[nH]c2c1 [Example 247]
4. Fc1cc2nc(-c3cccc(Nc4ccc(-c5ccccc5)nn4)c3)[nH]c2cc1Br [Example 4]
5. c1cc(Nc2ccc(-c3ncco3)cc2)cc(-c2nc3ccccc3[nH]2)c1 [Example 165]
6. c1cc(Nc2ccc(-c3ccncn3)nn2)cc(-c2nc3ccccc3[nH]2)c1 [Example 257]
7. FC(F)(F)c1cccc2nc(-c3cccc(Nc4ncc(-c5cccnn5)cn4)c3)[nH]c12 [Example 289]
8. FC(F)(F)Oc1cc2nc(-c3cccc(Nc4ncc(-c5cccnn5)cn4)c3)[nH]c2cc1Cl [Example 120]

1. > 60%
2. 30 to 60%
3. 30 to 60%
4. > 60%
5. > 60%
6. 30 to 60%
7. 30 to 60%
8. > 60%

Could you report inhibition at 1 µM for every entry in the following list?
1. c1cc(Nc2ccc(-c3cccnn3)cc2)cc(-c2nc3ncccc3[nH]2)c1 [Example 219]
2. c1ccc(-c2ccc(Nc3cccc(-c4nc5ccccc5[nH]4)c3)cc2)cc1 [Example 19]
3. FC(F)Oc1ccc2nc(-c3cccc(Nc4ncc(-c5ccccn5)cn4)c3)[nH]c2c1 [Example 285]

["> 60%", "> 60%", "> 60%"]
